# Target system: T1, human MSLN-R3-3 polypeptide (human)
# T1 construct: also called human MSLN-R3-3 protein; hMSLN-R3-3
# Procedure text: ELISA on coated antigen, antibody 100 nM
Quantity kind: OD450 (OD450)
Give just the numeric value; OD450 need not be written.

{"Binder": "S009-F2.13.3 (antibody, human IgG1, kappa, V domains shown, Human-murine chimeric antibody: murine VH/VL on human IgG1 heavy and kappa light constant regions) VH: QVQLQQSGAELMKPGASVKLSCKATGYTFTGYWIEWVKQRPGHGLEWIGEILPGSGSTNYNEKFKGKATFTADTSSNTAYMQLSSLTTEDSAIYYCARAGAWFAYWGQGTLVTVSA VL: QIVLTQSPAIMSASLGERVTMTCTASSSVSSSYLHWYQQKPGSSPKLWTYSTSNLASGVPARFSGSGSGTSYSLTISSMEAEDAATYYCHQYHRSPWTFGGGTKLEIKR", "Quantity kind": "OD450", "Value reported": 0.06}
{"Binder": "S009-F2.39.3 (antibody, human IgG1, kappa, V domains shown, Human-murine chimeric antibody: murine VH/VL on human IgG1 heavy and kappa light constant regions) VH: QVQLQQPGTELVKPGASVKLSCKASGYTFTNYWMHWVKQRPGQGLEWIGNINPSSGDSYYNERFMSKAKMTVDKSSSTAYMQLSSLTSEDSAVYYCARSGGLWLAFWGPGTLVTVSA VL: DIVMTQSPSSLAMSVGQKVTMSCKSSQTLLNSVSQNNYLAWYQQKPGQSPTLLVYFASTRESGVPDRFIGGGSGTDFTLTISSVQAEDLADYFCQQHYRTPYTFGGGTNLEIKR", "Quantity kind": "OD450", "Value reported": 0.05}

*Q* I would be grateful if you could share the reported OD450 for S009-F2.16.10 (antibody, human IgG1, kappa, V domains shown, Human-murine chimeric antibody: murine VH/VL on human IgG1 heavy and kappa light constant regions) VH: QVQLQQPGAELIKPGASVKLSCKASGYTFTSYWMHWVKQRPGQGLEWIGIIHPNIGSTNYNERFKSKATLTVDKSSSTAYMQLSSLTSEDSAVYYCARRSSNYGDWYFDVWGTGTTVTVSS VL: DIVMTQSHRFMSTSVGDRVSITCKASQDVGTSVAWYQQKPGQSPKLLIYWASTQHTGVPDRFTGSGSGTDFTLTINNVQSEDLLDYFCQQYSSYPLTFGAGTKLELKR .
*A* 0.05

*Q* Query S009-F2.47.1 (antibody, human IgG1, kappa, V domains shown, Human-murine chimeric antibody: murine VH/VL on human IgG1 heavy and kappa light constant regions) VH: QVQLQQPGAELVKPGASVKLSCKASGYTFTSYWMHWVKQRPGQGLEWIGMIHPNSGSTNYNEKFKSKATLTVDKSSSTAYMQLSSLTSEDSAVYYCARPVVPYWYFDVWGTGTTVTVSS VL: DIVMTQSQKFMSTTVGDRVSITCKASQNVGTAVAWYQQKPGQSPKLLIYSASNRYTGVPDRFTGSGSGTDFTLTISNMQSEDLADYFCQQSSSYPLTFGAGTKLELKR next
*A* 0.06

*Q* Param item: S009-F2.23.12 (antibody, human IgG1, kappa, V domains shown, Human-murine chimeric antibody: murine VH/VL on human IgG1 heavy and kappa light constant regions) VH: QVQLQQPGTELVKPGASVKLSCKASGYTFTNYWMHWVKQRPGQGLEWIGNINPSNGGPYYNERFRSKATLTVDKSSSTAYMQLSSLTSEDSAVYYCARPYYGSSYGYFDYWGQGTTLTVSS VL: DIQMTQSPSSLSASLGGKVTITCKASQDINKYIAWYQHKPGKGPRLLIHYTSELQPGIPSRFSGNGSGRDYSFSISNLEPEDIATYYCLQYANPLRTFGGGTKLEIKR
*A* 0.06

Reference for the values: patent US20250250357A1
